- Test system: HAP1 MTAP-intact
- PROTOCOL_DETAILS: SDMA in-cell western assay, HAP1 MTAP-intact cell line
- Assay type: cell-based
- TEST_SETTINGS: Homo sapiens
- Text: Table 1a also indicates IC50 values in an MTAP-isogenic cell line pair for exemplary compounds in an SDMA in-cell western assay (columns 7-8). HAP1 MTAP-intact is a cell line in which endogenous levels of MTAP are expressed, and HAP1 MTAP-deleted is an MTAP-null cell line. […] Compounds with a ratio in the SDMA in-cell western assay of equal to or greater than 3 fold are considered MTAP-selective.
MEASURED_ATTRIBUTE: IC50

Lookup: Request the reported IC50 associated with CC(C)CC(=O)N1CCC(Nc2cc(C(=O)NC[C@H](O)CN3CCc4cc(OCc5cnco5)ccc4C3)ccn2)CC1
Found: 1 to 10 µM

Lookup: Can you handle Cc1ncoc1COc1ccc2c(c1C)CCN(C[C@@H](O)CNC(=O)c1cc(NC3COC3)nc(N3CCOCC3)n1)C2 next?
Found: ≥ 10 µM

Lookup: Can you handle COc1cc(C(=O)NC[C@H](O)CN2CCc3cc(OCc4cnco4)ccc3C2)cc(NC2CCC2)n1 next?
Found: 1 to 10 µM

Lookup: Can you handle Cc1ncoc1COc1ccc2c(c1)CCN(C[C@@H](O)CNC(=O)c1cccc(NC3COC3)c1)C2 next?
Found: 1 to 10 µM

Lookup: Can you handle Cc1ncoc1COc1ccc2c(c1Br)CCN(C[C@@H](O)CNC(=O)c1ccnc(NC3CCC3)c1)C2 next?
Found: ≥ 10 µM

Lookup: Can you handle O=C(NC[C@H](O)CN1CCc2cc(OCc3cnco3)ccc2C1)c1cncc(NC2CCOCC2)c1 next?
Found: ≥ 10 µM

Lookup: Can you handle CC(=O)N1CCC(Nc2cc(C(=O)NC[C@H](O)CN3CCc4cc(OCc5ccnn5C)ccc4C3)ncn2)CC1 next?
Found: ≥ 10 µM

====

- Test system: HAP1 MTAP-intact
- PROTOCOL_DETAILS: SDMA in-cell western assay, HAP1 MTAP-intact cell line
- Type: cell-based
- TEST_SETTINGS: Homo sapiens
pIC50: −log10 of the molar value.
pIC50 reference

A selection of reference data follows.
{"columns": ["STRUCTURE_NOTATION", "pIC50"],
 "data": [
  ["CC(C)C(=O)N1CCC(Nc2cc(C(=O)NC[C@H](O)CN3CCc4cc(OCc5cnco5)ccc4C3)ccn2)CC1", "5.00 to 6.00"],
  ["Cc1cc(OCc2cnco2)cc2c1CN(C[C@@H](O)CNC(=O)c1ccnc(NC3CCC3)c1)CC2", "5.00 to 6.00"],
  ["Cc1c(OCc2cnco2)cc(F)c2c1CCN(C[C@@H](O)CNC(=O)c1ccnc(NC3CCC3)c1)C2", "≤ 5.00"],
  ["Cc1ncoc1COc1ccc2c(c1Cl)CCN(C[C@@H](O)CNC(=O)c1cc(NC3CCCC3)ncn1)C2", "≤ 5.00"],
  ["CCN1CCN(c2cc(C(=O)NC[C@H](O)CN3CCc4c(ccc(OCc5ocnc5C)c4C)C3)cc(NC3CCC3)n2)CC1", "≤ 5.00"],
  ["O=C(NC[C@H](O)CN1CCc2c(ccc(OCc3cnco3)c2Cl)C1)c1cc(NC2CCCC2)ncn1", "≤ 5.00"]
]}

Kindly consider the entry below.
Lookup: Request the reported pIC50 associated with O=C(NC[C@H](O)CN1CCc2c(ccc(OCc3cnco3)c2Cl)C1)c1ccnc(N[C@H]2CC[C@H](C(F)(F)F)CC2)c1
Found: ≤ 5.00

====

- Tested on: HAP1 MTAP-intact
- PROTOCOL_DETAILS: SDMA in-cell western assay, HAP1 MTAP-intact cell line
- Assay type: cell-based
- TEST_SETTINGS: Homo sapiens
MEASURED_ATTRIBUTE: IC50

A selection of reference data follows.
{"columns": ["STRUCTURE_NOTATION", "IC50"],
 "data": [
  ["CC(=O)N1CC[C@H](Nc2cc(C(=O)NC[C@H](O)CN3CCc4cc(OCc5ocnc5C)ccc4C3)ccn2)C[C@H]1C", "1000 to 10000 nM"],
  ["Cc1ncoc1COc1ccc2c(c1C)CCN(C[C@@H](O)CNC(=O)c1cc(NC3COC3)nc(N3CCCCC3)n1)C2", "≥ 10000 nM"]
]}

Lookup: Request the reported IC50 associated with O=C(NC[C@H](O)CN1CCc2cc(OCc3cnco3)ccc2C1)c1cc(NC2CCC2)ncc1F
Found: < 1000 nM

Lookup: Can you handle Cc1ncoc1COc1ccc2c(c1)CCN(C[C@@H](O)CNC(=O)c1ccc(OC3CCN(Cc4ccccc4)CC3)cc1)C2 next?
Found: < 1000 nM

Lookup: Can you handle Cc1ncoc1COc1ccc2c(c1C)CCN(C[C@@H](O)CNC(=O)c1ccc(OC3CCN(Cc4ccncc4)CC3)cc1)C2 next?
Found: ≥ 10000 nM

Lookup: Can you handle Cc1ncoc1COc1ccc2c(c1)CCN(C[C@@H](O)CNC(=O)c1cc(NC3CCCCC3)ncn1)C2 next?
Found: < 1000 nM

Lookup: Can you handle COc1ccc(C(=O)N2CCc3cc(C(=O)NC[C@H](O)CN4CCc5cc(OCc6cnco6)ccc5C4)ccc3C2)cc1 next?
Found: 1000 to 10000 nM

====

IC50 reference
- ASSAY_TARGET: PRMT5 (Homo sapiens)
- Construct: purchased Viva (custom protein)
- Sequence (O14744 whole entry): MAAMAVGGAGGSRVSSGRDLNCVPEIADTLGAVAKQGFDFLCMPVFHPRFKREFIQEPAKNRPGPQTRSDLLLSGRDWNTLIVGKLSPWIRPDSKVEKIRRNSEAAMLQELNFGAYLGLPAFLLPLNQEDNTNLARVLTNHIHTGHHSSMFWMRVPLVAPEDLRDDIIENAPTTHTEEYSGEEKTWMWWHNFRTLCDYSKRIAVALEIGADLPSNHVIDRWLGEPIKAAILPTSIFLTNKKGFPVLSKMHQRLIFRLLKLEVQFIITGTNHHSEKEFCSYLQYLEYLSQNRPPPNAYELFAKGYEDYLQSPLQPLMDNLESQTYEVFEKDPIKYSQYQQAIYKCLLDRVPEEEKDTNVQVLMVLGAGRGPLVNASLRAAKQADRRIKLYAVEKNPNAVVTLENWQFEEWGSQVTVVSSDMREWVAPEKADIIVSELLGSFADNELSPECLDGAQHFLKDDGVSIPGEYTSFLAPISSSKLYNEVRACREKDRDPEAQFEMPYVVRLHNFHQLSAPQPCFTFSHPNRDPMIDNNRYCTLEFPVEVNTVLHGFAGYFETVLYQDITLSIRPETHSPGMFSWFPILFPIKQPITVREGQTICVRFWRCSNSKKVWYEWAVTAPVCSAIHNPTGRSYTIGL
- Sequence (Q9BQA1 whole entry partner): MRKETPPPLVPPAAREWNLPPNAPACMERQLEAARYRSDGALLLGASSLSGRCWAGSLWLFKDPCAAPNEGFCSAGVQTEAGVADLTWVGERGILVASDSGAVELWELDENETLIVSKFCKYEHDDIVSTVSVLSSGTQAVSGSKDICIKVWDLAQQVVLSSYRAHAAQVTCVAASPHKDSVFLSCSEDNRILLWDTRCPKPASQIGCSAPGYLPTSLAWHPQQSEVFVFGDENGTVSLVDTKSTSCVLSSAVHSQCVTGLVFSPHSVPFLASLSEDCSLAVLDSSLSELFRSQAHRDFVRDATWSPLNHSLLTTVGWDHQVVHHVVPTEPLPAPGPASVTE
- PROTOCOL_DETAILS: PRMT5 IC50 assay in the presence of SAM as cofactor
- Assay type: biochemical

{"columns": ["COMPOUND", "ASSAY_TARGET", "MEASURED_ATTRIBUTE", "VALUE_OBSERVED"],
 "data": [
  ["CC(C)N1CCN(c2nc(NC3COC3)cc(C(=O)NC[C@H](O)CN3CCc4cc(OCc5cnco5)ccc4C3)n2)CC1 [Compound 296]", "PRMT5 (Homo sapiens)", "IC50", "50 to 500 nM"],
  ["COCCN(C)c1cc(C(=O)NC[C@H](O)CN2CCc3c(ccc(OCc4ocnc4C)c3C)C2)cc(NC2CCN(C(C)=O)CC2)n1 [Compound 592]", "PRMT5 (Homo sapiens)", "IC50", "50 to 500 nM"],
  ["CCC(=O)N1CCN(c2nc(NC3COC3)cc(C(=O)NC[C@H](O)CN3CCc4cc(OCc5cnco5)ccc4C3)n2)CC1 [Compound 309]", "PRMT5 (Homo sapiens)", "IC50", "50 to 500 nM"]
]}

Lookup: Request the reported IC50 associated with CC(C)(C)c1cc(C(=O)NC[C@H](O)CN2CCc3cc(OCc4cnco4)ccc3C2)cc(NC2CCC2)n1 [Compound 308]
Found: 500 to 5000 nM

====

IC50 reference
- Test system: HAP1 MTAP-intact
- PROTOCOL_DETAILS: SDMA in-cell western assay, HAP1 MTAP-intact cell line
- Format: cell-based
- TEST_SETTINGS: Homo sapiens
- Description: Table 1a also indicates IC50 values in an MTAP-isogenic cell line pair for exemplary compounds in an SDMA in-cell western assay (columns 7-8). HAP1 MTAP-intact is a cell line in which endogenous levels of MTAP are expressed, and HAP1 MTAP-deleted is an MTAP-null cell line. […] Compounds with a ratio in the SDMA in-cell western assay of equal to or greater than 3 fold are considered MTAP-selective.

{"columns": ["STRUCTURE_NOTATION", "IC50"],
 "data": [
  ["CC(=O)N1CCC(Nc2cc(C(=O)NC[C@H](O)CN3CCc4c(C)c(OCc5ocnc5C)cc(F)c4C3)ccn2)CC1", "≥ 10 µM"]
]}

Kindly consider the entry below.
Lookup: Request the reported IC50 associated with COc1cc(C(=O)NC[C@H](O)CN2CCc3cc(OCc4ocnc4C)ccc3C2)cc(NC2CCN(C(C)=O)CC2)n1
Found: 1 to 10 µM

====

- ASSAY_TARGET: PRMT5 (Homo sapiens)
- Construct: purchased Viva (custom protein)
- PROTOCOL_DETAILS: PRMT5 IC50 assay with no cofactor
- Format: biochemical
pIC50: −log10 of the molar value.
pIC50 reference

{"columns": ["MOLECULE", "pIC50"],
 "data": [
  ["CC(=O)N1CCC(Nc2cc(C(=O)NC[C@H](O)CN3CCc4c(ccc(OCc5ocnc5C)c4C)C3)cc(N3CCCCC3)n2)CC1 [Compound 595]", "5.30 to 6.30"]
]}

Lookup: Request the reported pIC50 associated with CC(=O)N1CCN(c2cc(C(=O)NC[C@H](O)CN3CCc4cc(OCc5ocnc5C)ccc4C3)cc(NC3CCC3)n2)CC1 [Compound 556]
Found: 5.30 to 6.30

Lookup: Can you handle Cc1c(OCc2cnco2)ccc2c1CCN(C[C@@H](O)CNC(=O)c1cc(NC3CCN(C(=O)CC(C)C)CC3)ncn1)C2 [Compound 528] next?
Found: 5.30 to 6.30

Lookup: Can you handle CC(=O)N1CCN(c2nc(NC3COC3)cc(C(=O)NC[C@H](O)CN3CCc4c(ccc(OCc5ocnc5C)c4C)C3)n2)CC1 [Compound 499] next?
Found: ≤ 5.30

Lookup: Can you handle COCCN(C)c1cc(C(=O)NC[C@H](O)CN2CCc3cc(OCc4ocnc4C)ccc3C2)cc(NC2CCC2)n1 [Compound 554] next?
Found: 5.30 to 6.30

Lookup: Can you handle CCCC(=O)N1CCC(Nc2cc(C(=O)NC[C@H](O)CN3CCc4c(ccc(OCc5cnco5)c4C)C3)ncn2)CC1 [Compound 560] next?
Found: 5.30 to 6.30

Lookup: Can you handle CC(=O)N1CC(Nc2cc(C(=O)NC[C@H](O)CN3CCc4c(ccc(OCc5cnco5)c4C)C3)ncn2)C1 [Compound 543] next?
Found: ≤ 5.30
